target_desc: human neprilysin (EC 3.4.24.11; NEP) (Homo sapiens, UniProt P08473)
Construct: purchased R&D Systems, Minneapolis, Minn; 1182-ZN
Sequence (P08473 52-750 limits assumed): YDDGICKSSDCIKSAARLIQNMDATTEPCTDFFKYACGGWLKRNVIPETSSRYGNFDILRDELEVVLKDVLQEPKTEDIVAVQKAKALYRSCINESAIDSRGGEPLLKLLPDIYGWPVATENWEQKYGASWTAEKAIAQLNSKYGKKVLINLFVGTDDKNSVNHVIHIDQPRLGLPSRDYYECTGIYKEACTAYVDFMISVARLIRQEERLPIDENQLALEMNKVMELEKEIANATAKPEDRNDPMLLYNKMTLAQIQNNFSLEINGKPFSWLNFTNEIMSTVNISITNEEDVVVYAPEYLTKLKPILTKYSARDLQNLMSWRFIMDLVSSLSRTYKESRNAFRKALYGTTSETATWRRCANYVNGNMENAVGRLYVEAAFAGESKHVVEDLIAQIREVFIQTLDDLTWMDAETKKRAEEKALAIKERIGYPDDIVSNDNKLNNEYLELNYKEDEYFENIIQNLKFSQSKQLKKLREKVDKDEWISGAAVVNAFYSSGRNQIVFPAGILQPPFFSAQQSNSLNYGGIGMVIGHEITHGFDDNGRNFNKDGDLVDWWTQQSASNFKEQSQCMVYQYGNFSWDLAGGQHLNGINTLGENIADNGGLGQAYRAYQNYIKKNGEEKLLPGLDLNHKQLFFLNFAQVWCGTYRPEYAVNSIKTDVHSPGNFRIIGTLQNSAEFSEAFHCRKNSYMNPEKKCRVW
protocol: In vitro enzyme inhibition assay at human NEP (fluorogenic peptide substrate)
Format: biochemical
run_parameters: recombinant human NEP; 37° C.; substrate Mca-D-Arg-Arg-Leu-Dap-(Dnp)-OH 10 μM; values given as ranges; read-out: pKi values at human NEP (converted)
observation_type: Ki

molecule	endpoint_result
CC1=NN(c2ccc(C(=O)N[C@@H](CC(=O)O)Cc3ccccc3Cl)cc2Cl)C(=O)C1 [Example 13-5]	12.6 to 100 nM
CCc1ccc(C(=O)N[C@H](Cc2ccccc2)[C@@H](O)C(=O)O)cc1NC(=O)CC(=O)O [Example 10-67]	12.6 to 100 nM
O=C(O)Cc1ccc(-c2ccc(C(=O)N[C@H](Cc3ccccc3)[C@@H](O)C(=O)O)cc2)cc1 [Example 10-50]	12.6 to 100 nM
CCc1ccc(C(=O)N[C@H](Cc2ccccc2)[C@@H](O)C(=O)O)cc1NC(=O)c1ccncc1 [Example 10-71]	12.6 to 100 nM
CCc1ccc(C(=O)N[C@H](Cc2ccccc2Cl)[C@@H](O)C(=O)O)cc1-n1c(=O)[nH]c2sc(C)cc2c1=O [Example 4]	≤ 1 nM
Cc1cc(C(=O)N[C@H](Cc2ccccc2)[C@@H](O)C(=O)O)ccc1-n1c(C)cc(C=O)c1C [Example 10-57]	12.6 to 100 nM
O=C(O)C[C@@H](Cc1ccccc1Cl)NC(=O)c1cccc(-c2ccccc2C(=O)O)c1 [Example 13-2]	1.26 to 10 nM
O=C(N[C@H](Cc1ccccc1Cl)[C@@H](O)C(=O)O)c1cc(F)cc(-c2ccccc2C(=O)O)c1 [Example 6-1]	1.26 to 10 nM
CCc1ccc(C(=O)N[C@H](Cc2ccccc2)[C@@H](O)C(=O)O)cc1NC(=O)Nc1ccccc1 [Example 10-75]	12.6 to 100 nM
O=C(N[C@H](Cc1ccccc1Cl)[C@@H](O)C(=O)O)c1ccc(Cl)c(-c2ccccc2C(=O)O)c1 [Example 6-3]	≤ 1 nM
O=C(O)Cc1cccc(-c2ccc(C(=O)N[C@H](Cc3ccccc3)[C@@H](O)C(=O)O)cc2)c1 [Example 10-49]	12.6 to 100 nM
O=C(N[C@H](Cc1ccccc1Cl)[C@@H](O)C(=O)O)c1cc(Cl)c(F)c(-c2ccccc2C(=O)O)c1 [Example 6-4]	1.26 to 10 nM
COc1ccc(C(=O)N[C@H](Cc2ccccc2Cl)[C@@H](O)C(=O)O)cc1-c1ccccc1C(=O)O [Example 6-7]	12.6 to 100 nM
CCc1ccc(C(=O)N[C@H](Cc2ccccc2)[C@@H](O)C(=O)O)cc1NC(=O)Nc1ccsc1C(=O)O [Example 10-78]	12.6 to 100 nM
Cc1ccc(C(=O)N[C@@H](CC(=O)O)Cc2ccccc2Cl)cc1-c1ccccc1CC(=O)O [Example 13-3]	1.26 to 10 nM

---

target_desc: human neprilysin (EC 3.4.24.11; NEP) (Homo sapiens)
Construct: purchased R&D Systems, Minneapolis, Minn; 1182-ZN
protocol: In vitro enzyme inhibition assay at human NEP (fluorogenic peptide substrate)
Format: biochemical
run_parameters: recombinant human NEP; 37° C.; substrate Mca-D-Arg-Arg-Leu-Dap-(Dnp)-OH 10 μM; values given as ranges; read-out: pKi values at human NEP (converted)
Method: In vitro Assays for the Quantitation of Inhibitor Potencies at Human and Rat NEP, and Human ACE The inhibitory activities of compounds at human and rat neprilysin (EC 3.4.24.11; NEP) and human angiotensin converting enzyme (ACE) were determined using in vitro assays as described below. Recombinant human NEP and recombinant human ACE were obtained commercially (R&D Systems, Minneapolis, Minn., catalog numbers 1182-ZN and 929-ZN, respectively). […]
observation_type: Ki

compound	endpoint_result
Cc1cc(C)n(-c2cc(C(=O)N[C@H](Cc3ccccc3)[C@@H](O)C(=O)O)ccc2C)n1 [Example 10-7]	12.6 to 100 nM
Cc1cc(C)n(-c2ccc(C(=O)N[C@H](Cc3ccccc3)[C@@H](O)C(=O)O)cc2)n1 [Example 10-4]	12.6 to 100 nM
Cc1ccc(C(=O)N[C@H](Cc2ccccc2Cl)[C@H](O)C(=O)O)cc1-c1ccccc1C(=O)O [Example 6-5]	12.6 to 100 nM
CC1=NN(c2ccc(C(=O)N[C@H](Cc3ccccc3Cl)[C@H](O)C(=O)O)cc2)C(=O)C1 [Example 6-15]	1.26 to 10 nM
